// reported target mRNA knockdown for each item listed
settings: siRNA; also: test system not given here
HELM strings list units from the 5' end as sugar, base in round brackets, then linkage (d deoxyribose, r ribose, m 2'-O-methyl, p phosphodiester). Strings are as the collection lists them, not checked against the first reports. ss, as = sense and antisense strand; [hna] = hexitol nucleic acid
I only need the number, in %, no unit after it.

{"Substance": "RNA1{r(G)p.r(A)p.r(C)p.r(G)p.r(U)p.r(A)p.r(A)p.r(A)p.r(C)p.r(G)p.r(G)p.r(C)p.r(C)p.r(A)p.r(C)p.r(A)p.r(A)p.r(G)p.r(U)p.r(U)p.r(T)}|RNA2{r(A)p.r(C)p.r(U)p.r(U)p.r(G)p.r(U)p.r(G)p.[hna](G)p.r(C)p.r(C)p.r(G)p.r(U)p.r(U)p.[hna](U)p.r(A)p.r(C)p.r(G)p.[hna](U)p.[hna](C)p.[hna](G)p.r(T)}$$$RNA1{StrandType:ss}|RNA2{StrandType:as}$", "Measurement unit": "%", "target mRNA knockdown": 87}

Then there is this substance:
Prompt line: # return recorded target mRNA knockdown for entry RNA1{m(U)p.r(A)p.r(A)p.r(A)p.r(G)p.r(C)p.m(U)p.r(G)p.r(G)p.r(A)p.r(A)p.r(A)p.r(G)p.r(G)p.r(G)p.r(A)p.r(C)p.r(G)p.r(G)p.r(T)p.r(T)}|RNA2{r(C)p.r(C)p.r(G)p.r(U)p.r(C)p.r(C)p.r(C)p.r(U)p.r(U)p.r(U)p.r(C)p.m(C)p.r(A)p.r(G)p.r(C)p.r(U)p.r(U)p.m(U)p.r(A)p.r(T)p.r(T)}$$$RNA1{StrandType:ss}|RNA2{StrandType:as}$
Response line: 65

###

Listing of recorded target mRNA knockdown by entry.
settings: siRNA
HELM strings list units from the 5' end as sugar, base in round brackets, then linkage (d deoxyribose, r ribose, m 2'-O-methyl, p phosphodiester). Strings are as the collection lists them, not checked against the first reports. ss, as = sense and antisense strand; [fl2r] = 2'-fluoro
Return type: number; implicit unit %.

Please review the following examples before continuing.
{"Substance": "RNA1{r(A)p.r(A)p.r(G)p.r(G)p.r(C)p.r(C)p.r(A)p.r(A)p.r(C)p.r(C)p.r(G)p.r(A)p.[fl2r](U)p.r(A)p.r(C)p.r(U)p.r(U)p.r(C)p.r(U)p.r(T)p.r(T)}|RNA2{r(A)p.r(G)p.r(A)p.r(A)p.r(G)p.[fl2r](U)p.r(A)p.r(U)p.r(C)p.r(G)p.r(G)p.r(U)p.r(U)p.r(G)p.r(G)p.r(C)p.r(C)p.r(U)p.r(U)p.r(T)p.r(T)}$$$RNA1{StrandType:ss}|RNA2{StrandType:as}$", "target mRNA knockdown [%]": 69}
{"Substance": "RNA1{r(C)p.r(C)p.r(U)p.r(C)p.r(G)p.r(G)p.r(A)p.r(G)p.r(A)p.r(G)p.r(U)p.r(U)p.r(C)p.r(U)p.r(A)p.r(C)p.r(U)p.r(C)p.r(U)p.r(T)p.r(T)}|RNA2{r(A)p.r(G)p.r(A)p.r(G)p.m(U)p.r(A)p.r(G)p.r(A)p.r(A)p.r(C)p.r(U)p.r(C)p.r(U)p.r(C)p.r(C)p.r(G)p.r(A)p.r(G)p.r(G)p.r(T)p.r(T)}$$$RNA1{StrandType:ss}|RNA2{StrandType:as}$", "target mRNA knockdown [%]": 85}

Prompt line: Please indicate target mRNA knockdown recorded for RNA1{m(A)p.r(A)p.m(A)p.r(C)p.m(C)p.r(U)p.m(C)p.r(A)p.m(G)p.r(C)p.m(C)p.r(C)p.m(U)p.r(A)p.m(A)p.r(C)p.m(G)p.r(G)p.m(U)p.r(T)p.r(T)}|RNA2{r(A)p.r(C)p.r(C)p.r(G)p.r(U)p.r(U)p.r(A)p.r(G)p.r(G)p.r(G)p.r(C)p.r(U)p.r(G)p.r(A)p.r(G)p.r(G)p.r(U)p.r(U)p.r(U)p.r(T)p.r(T)}$$$RNA1{StrandType:ss}|RNA2{StrandType:as}$
Response line: 51
